Assay: chemical genetic growth profiling, strain panel (AID 1159580);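 note: tested at 20 µM; growth read once vehicle control cultures reached saturation at 30 °C; 1 = growth at the plate median or of vehicle wells; lower values mean less growth of the strain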
Conditions: S. cerevisiae deletion strains, growth OD, locus YMR307W, strain GAS1, stronger effect = lower value
About 2,000 (36%) of roughly 5,500 compounds were called active. Roughly 18% stayed inconclusive and do not appear here. Some of the results follow.
READOUT_KIND: normalized growth
Please respond with just the number, no unit label.

Examples with their reported normalized growth follow.
- COMPOUND: "CC(=O)OCC(=O)[C@H]1CCC2C3CCC4=CC(=O)CC[C@]4(C)C3CC[C@@]21C (stereo not given in full)"
  VALUE: 0.744
- COMPOUND: "CC(=O)OCC(=O)[C@@]1(O)CCC2C3CCC4=CC(=O)CC[C@]4(C)C3C(=O)C[C@@]21C (stereo not given in full)"
  VALUE: 0.923
- COMPOUND: "C[C@H]1CC2C([C@@H](O)C[C@@]3(C)C2CC[C@]3(O)C(=O)CO)[C@@]2(C)C=CC(=O)C=C12 (stereo not given in full)"
  VALUE: 1

Read the next record carefully.
-- ask Query: normalized growth; subject: COc1cc(/C=C2\NC(=O)NC2=O)ccc1O
-- reply 1.07
